Source of measurements: patent US20240174634A1

assayedTarget: ALDH1A3 (Homo sapiens)
Sequence (P47895 whole entry): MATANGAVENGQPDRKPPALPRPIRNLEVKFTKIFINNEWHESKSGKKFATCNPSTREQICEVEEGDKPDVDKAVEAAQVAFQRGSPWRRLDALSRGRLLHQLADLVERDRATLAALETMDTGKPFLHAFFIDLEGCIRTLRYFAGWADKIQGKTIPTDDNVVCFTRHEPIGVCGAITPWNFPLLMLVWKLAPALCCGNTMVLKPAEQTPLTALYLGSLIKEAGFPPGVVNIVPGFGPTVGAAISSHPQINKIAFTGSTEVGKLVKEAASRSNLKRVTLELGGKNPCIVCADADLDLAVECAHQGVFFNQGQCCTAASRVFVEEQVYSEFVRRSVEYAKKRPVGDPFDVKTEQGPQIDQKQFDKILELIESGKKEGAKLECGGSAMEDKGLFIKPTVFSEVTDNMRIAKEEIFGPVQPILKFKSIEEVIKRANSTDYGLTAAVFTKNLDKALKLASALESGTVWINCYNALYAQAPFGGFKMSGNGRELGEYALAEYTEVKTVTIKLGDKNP
assay: Primary biochemical assay, NAD(P)H-Glo Detection System
Design: His-tag; made in house; host or cells: E. coli Rosetta (DE3)
recordedConditions: 30 min pre-incubation, propionaldehyde and NAD at Km
pIC50: −log10 of the molar value.
Documented pIC50 across a set of compounds

Recorded results for 3 compounds are shown here.
[
  {
    "compound": "CN(CCOc1ccc2c(c1)CCC(=O)N2)C(=O)c1cccnc1",
    "pIC50": "6.00 to 7.00"
  },
  {
    "compound": "O=C1CCc2cc(OCCN3CCCC3c3cccc(F)c3)c(F)cc2N1 (centres unmarked)",
    "pIC50": "> 7.00"
  },
  {
    "compound": "O=C1CCc2cc(OCCN3CCCC3c3ccc(F)c(F)c3)ccc2N1 (centres unmarked)",
    "pIC50": "> 7.00"
  }
]

// pIC50 value for O=C1CCc2cc(OCCN3CC(F)CC3c3cccc(F)c3)ccc2N1 (centres unmarked) : > 7.00

// pIC50 value for O=C1COc2cc(OCCN3CCCC3c3cccc(F)c3)ccc2N1 (centres unmarked) : 6.00 to 7.00

// pIC50 value for "O=C1CCc2cc(OCCn3ccnc3-c3ccccc3)ccc2N1" : 6.00 to 7.00

// pIC50 value for "O=C1CCc2cc(NC(=O)c3scnc3-c3cccc(F)c3)c(F)cc2N1" : > 7.00

// pIC50 value for "O=C1CCc2cc(NC(=O)c3c[nH]nc3-c3cccc(F)c3)ccc2N1" : 6.00 to 7.00
